Let's look at some binders and their measured koff.
# measured-target: T1, human DLL4 extracellular domain (human, UniProt Q9NR61 27-529)
# T1 construct: purified recombinant ECD; biotin-labelled or 6xHis-tagged depending on the assay; also called huDLL4 ECD; hu DLL4 ECD
# T1 sequence (Q9NR61 27-529 limits assumed): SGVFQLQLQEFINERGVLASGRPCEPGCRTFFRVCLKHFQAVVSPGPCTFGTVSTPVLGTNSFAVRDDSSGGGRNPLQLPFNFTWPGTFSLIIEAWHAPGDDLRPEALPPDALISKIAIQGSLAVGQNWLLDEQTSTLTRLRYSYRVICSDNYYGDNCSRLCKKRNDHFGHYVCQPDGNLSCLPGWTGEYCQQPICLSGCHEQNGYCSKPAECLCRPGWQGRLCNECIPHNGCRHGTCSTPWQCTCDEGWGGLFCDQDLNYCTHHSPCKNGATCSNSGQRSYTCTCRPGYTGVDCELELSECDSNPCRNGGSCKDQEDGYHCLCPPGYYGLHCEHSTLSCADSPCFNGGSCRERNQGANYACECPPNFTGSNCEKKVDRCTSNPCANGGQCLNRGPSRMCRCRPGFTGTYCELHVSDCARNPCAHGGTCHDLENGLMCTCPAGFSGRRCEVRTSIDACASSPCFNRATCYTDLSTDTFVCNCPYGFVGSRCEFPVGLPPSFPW
# assay-comment: SPR (Biacore)
# Method: The BIACORE® surface plasmon resonance assay (Biacore, Inc., Piscataway, N.J., US) determines the affinity of antibodies with kinetic measurements of on-rate and off-rate constants. […] The equilibrium dissociation constant KD (M) of the reaction between antibodies and the target antigen was then calculated from the kinetic rate constants by the following formula: KD=Koff/Kₒₙ. Binding was recorded as a function of time and kinetic rate constants were calculated.
Use s⁻¹ as the unit, but write only the number.

binder	unit-annotation	assay-result
h1A11.H2 (antibody, V domains shown, also called h1A11.H2 VH / h1A11.E12 VL) VH: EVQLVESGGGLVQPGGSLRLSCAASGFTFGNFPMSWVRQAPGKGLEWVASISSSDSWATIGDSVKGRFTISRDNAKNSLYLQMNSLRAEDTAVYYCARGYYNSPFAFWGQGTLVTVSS VL: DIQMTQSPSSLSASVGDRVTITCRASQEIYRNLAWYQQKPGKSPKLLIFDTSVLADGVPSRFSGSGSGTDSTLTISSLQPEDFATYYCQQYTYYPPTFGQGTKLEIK	s⁻¹	3.85e-05
h1A11.G3 (antibody, V domains shown, also called h1A11.G3 VH / h1A11.E12 VL) VH: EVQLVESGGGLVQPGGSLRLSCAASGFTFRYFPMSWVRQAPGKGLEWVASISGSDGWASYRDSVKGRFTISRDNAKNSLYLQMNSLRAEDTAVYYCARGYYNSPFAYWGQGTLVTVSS VL: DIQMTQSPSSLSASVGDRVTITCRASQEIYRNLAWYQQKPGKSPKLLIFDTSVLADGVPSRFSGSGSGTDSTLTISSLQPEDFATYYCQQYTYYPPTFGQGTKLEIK	s⁻¹	9.39e-06

Given the binder h1A11.B5 (antibody, V domains shown, also called h1A11.B5 VH / h1A11.B5 VL) VH: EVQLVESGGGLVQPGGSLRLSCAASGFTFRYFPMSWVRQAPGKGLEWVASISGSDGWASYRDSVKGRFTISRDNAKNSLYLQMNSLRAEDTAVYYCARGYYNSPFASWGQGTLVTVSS VL: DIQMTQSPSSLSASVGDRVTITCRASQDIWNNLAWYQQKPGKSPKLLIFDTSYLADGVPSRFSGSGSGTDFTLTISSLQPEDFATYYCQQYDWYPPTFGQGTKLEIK , what is its reported koff?
0.000134
